- Test system: NOMO1
- measurement-protocol: cell viability relative to DMSO control; higher = less cytotoxic
- protocol-conditions: RPMI 5 mM glucose + 10% dialyzed FBS; 48 h; 1.71 µM
Lab note: cut-off is 90%. Strictly less in cell viability is label 1. Exactly 90% or more is label 0.

These recorded examples may help you get a feel for the data.
{"compound": "O=c1[nH]cnc2c1ncn2[C@H]1CC[C@@H](CO)O1", "classification": "label 0"}
{"compound": "CCN(C)C(=O)Oc1cccc([C@H](C)N(C)C)c1", "classification": "label 1"}
{"compound": "CC(C)(C)NC(=O)[C@H]1CC[C@H]2[C@@H]3CC[C@H]4NC(=O)\\C=C/[C@]4(C)[C@H]3CC[C@]12C", "classification": "label 0"}

(Q) Decide: cell viability of CN[S+](=O)([O-])CCc1ccc2[nH]cc(C3CCN(C)CC3)c2c1 strictly below 90%?
(A) label 0

(Q) I'd appreciate it if you could check whether Nc1nc(OCc2ccccc2)c2nc[nH]c2n1 has cell viability smaller than 90%.
(A) label 0

(Q) Item CC1(C)CC(O)CC(C)(C)N1[O] : cell viability beneath 90%, strictly?
(A) label 0

(Q) Item Oc1cc(O)cc(/C=C/c2ccc(O)c(O)c2)c1 : cell viability beneath 90%, strictly?
(A) label 0

(Q) Check if cell viability falls below 90% for CC(C)[C@H](CO)Nc1nc(Nc2cccc(Cl)c2)c2ncn(C(C)C)c2n1 .
(A) label 1

(Q) Given COC(=O)[C@@H](N)CCCNC(=N)N[N+](=O)[O-] , is recorded cell viability strictly lower than 90%?
(A) label 0

---

This listing pairs molecules with measured cell viability.
- System: NOMO1
- measurement-protocol: cell viability relative to DMSO control; higher = less cytotoxic
- protocol-conditions: RPMI 5 mM glucose + 10% dialyzed FBS; 48 h; 0.569 µM
Param answer (str): number followed by unit.

{"compound-structure": "Cc1[nH]c(/C=C2\\C(=O)Nc3ccc([S+](=O)([O-])Cc4c(Cl)cccc4Cl)cc32)c(C)c1C(=O)N1CCC[C@@H]1CN1CCCC1", "assay-result": "85.9%"}
{"compound-structure": "Cc1cn(CCN2CCN(c3ccccc3-c3cc(C#N)cc(C(=O)NCCCN4CCCC4)c3)CC2)c2ccccc12", "assay-result": "124%"}
{"compound-structure": "CC(C)(C)NC(=O)[C@@H]1CN(Cc2cccnc2)CCN1C[C@@H](O)C[C@@H](Cc1ccccc1)C(=O)N[C@H]1c2ccccc2C[C@H]1O.O=S(=O)(O)O", "assay-result": "125%"}
{"compound-structure": "COc1cc2ncnc(Nc3cccc(Br)c3)c2cc1OC", "assay-result": "102%"}
{"compound-structure": "CN(C)C[C@@H]1CC[N]2C=C(C3=C2C=CC=C3)C/4=C(/C(=O)NC4=O)C5=C[N](CCO1)C6=C5C=CC=C6", "assay-result": "92.3%"}

(Q) Tell me cell viability reported for CC(=O)[C@H]1CC[C@H]2[C@@H]3CCC4=CC(=O)CC[C@]4(C)[C@H]3CC[C@]12C
(A) 136%

(Q) Indicate its recorded cell viability; the molecule in question is O=C1NC(=O)/C(=C/c2cccc(C(F)(F)F)c2)S1
(A) 93.2%

(Q) State its cell viability for this molecule: NC\1=N\C(=O)N(\C=C1)[C@H]\2[C@H](O)[C@H](O)C(=C2F)\CO
(A) 111%

(Q) Read off the recorded cell viability for CC[C@@]1(O)C[C@H](O[C@H]2C[C@H](N(C)C)[C@H](O[C@H]3C[C@H](O)[C@H](O[C@H]4CCC(=O)[C@H](C)O4)[C@H](C)O3)[C@H](C)O2)c2c(cc3c(c2O)C(=O)c2c(O)cccc2C3=O)[C@H]1C(=O)OC
(A) 93.9%

(Q) Report cell viability for COc1cc(OC)c(NC(=O)Nc2cc(C)on2)cc1Cl
(A) 98%
